All values here come from patent US20150353933.

TARGET ENTITY: T1, midkine (AP-MK) (Homo sapiens, UniProt P21741 P21741:23-143)
T1 chain: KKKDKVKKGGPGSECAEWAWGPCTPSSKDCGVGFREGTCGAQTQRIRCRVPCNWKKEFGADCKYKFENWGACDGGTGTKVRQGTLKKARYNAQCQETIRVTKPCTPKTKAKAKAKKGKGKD
ASSAY EXPLANATION: inhibition; AP-MK binding to HepG2, 500 nM aptamer
MEASUREMENT CONTEXT: tags: alkaline phosphatase fusion, APtag-5 vector (GenHunter), 293T culture supernatant
QUANTITY KIND: activity (% inhibition)
Reply numerically in % inhibition, unit not repeated.

Reference set, count: 5
{"columns": ["BINDER", "activity / % inhibition"],
 "data": [
  ["GUCUGUGUGGUUUAUCCGGAC (ssRNA, 5' 80PEG4gs; 3' idT; 2'-OMe at 1-3,8-10,13,18-21; 2'-F at U4,U6,U11,U12,U15,C16,C17; 2'-OH at G5,G7,A14) [SEQ ID NO: 8-5]", 61],
  ["GCCAUCGCAAUGGUGAGUGGUUUAUCCGCCUGCGCAUGGC (ssRNA, 2'-OMe at 1-3 and 38-40; 2'-F at all other pyrimidines; other purines 2'-OH) [SEQ ID NO: 7-1]", 93],
  ["GUCUGUGUGGUUUAUCCGGAC (ssRNA, 5' 80PEG4ts; 3' idT; 2'-OMe at G1,G9,G10,U13,G18,G19,A20; 2'-F at other pyrimidines except C21 (unmodified as printed); 2'-OH at G5,G7,A14) [SEQ ID NO: 8-2]", 61],
  ["GUCUGUGUGGUUUAUCCGGAC (ssRNA, 5' 80PEG4ts; 3' idT; 2'-OMe at 1-3,8-10,13,18-21; 2'-F at U4,U6,U11,U12,U15,C16,C17; 2'-OH at G5,G7,A14) [SEQ ID NO: 8-4]", 58],
  ["GUCUGUGUGGUUUAUCCGGAC (ssRNA, 2'-OMe at G1,G9,G10,U13,G18,G19,A20; 2'-F at all other pyrimidines; 2'-OH at G5,G7,A14) [SEQ ID NO: 8-1]", 76]
]}

Pending binder:
For this binder ( GUCUGUGUGGUUUAUCCGGAC (ssRNA, 5' 80PEG4gs; 3' idT; 2'-OMe at G1,G9,G10,U13,G18,G19,A20; 2'-F at other pyrimidines except C21 (unmodified as printed); 2'-OH at G5,G7,A14) [SEQ ID NO: 8-3] ), measured activity is 65
